System: TNFα
Assay: Cot Monocyte TNFα Cell Based Assay
Settings: Homo sapiens, Monocyte, read-out: EC50 TNF, LPS-stimulated human monocytes, TNFα
Quantity Name: log10 of EC50 (log10 of the value in nM)
Would you kindly interpret these values as log10 of EC50 expressed in nM?

Query Cn1ncc2c([C@H](Nc3cc(C#N)c4ncc(C#N)c(NCC(C)(C)C)c4c3)c3cn(C4(C)CC4)nn3)cccc21 [Example 529] on TNFα; log10 of EC50 returned: 1.70

Query [2H][C@](Nc1cc(Cl)c2ncc(C#N)c(N[C@H](CC)c3ccccc3)c2c1)(c1cccnc1)c1cn(C2CC2)nn1 [Example 159] on TNFα; log10 of EC50 returned: 1.98

Query CC(C)(C)CNc1c(C#N)cnc2c(C#N)cc(N[C@H](c3cn(C4CC4)nn3)c3csc4c3CCN(C3COC3)C4)cc12 [Example 433] on TNFα; log10 of EC50 returned: 1.81

Query Cc1ccc([C@H](Nc2cc(Cl)c3ncc(C#N)c(Nc4ccc(F)c(Cl)c4)c3c2)c2c[nH]nn2)cn1 [Example 271] on TNFα; log10 of EC50 returned: 2.92

Query CC[C@@H](Nc1c(C#N)cnc2c(C#N)cc(N[C@H](c3cn(C4(C(F)(F)F)CC4)nn3)c3cccc4ncsc34)cc12)c1ccccc1 [Example 412] on TNFα; log10 of EC50 returned: 2.20

Query [2H][C@](Nc1cc(Cl)c2ncc(C#N)c(N[C@H](CC)c3ccccc3)c2c1)(c1ccc(F)nc1)c1cn(C2CC2)nn1 [Example 155] on TNFα; log10 of EC50 returned: 1.90

Query Cc1ncsc1[C@H](Nc1cc(Cl)c2ncc(C#N)c(N[C@H](C)c3ccccc3)c2c1)c1cn(C2CCN(C(C)(C)C)CC2)nn1 [Example 240] on TNFα; log10 of EC50 returned: 2.80

Query CC(C)(C)CNc1c(C#N)cnc2c(C#N)cc(N[C@H](c3cn(C4(C(N)=O)CCC4)nn3)c3cccc4cnccc34)cc12 [Example 587] on TNFα; log10 of EC50 returned: 2.69

Query COc1ccc([C@H](Nc2cc(Cl)c3ncc(C#N)c(NCC(C)(C)C)c3c2)c2cn(C3(C(F)F)CC3)nn2)c(C)n1 [Example 729] on TNFα; log10 of EC50 returned: 2.03

Query [2H]C(Nc1cc(Cl)c2ncc(C#N)c(NCC(C)(C)C)c2c1)(c1cn(C2CC2)nn1)c1ccc(F)nc1F (stereo not drawn) [Example 103] on TNFα; log10 of EC50 returned: 2.12

Query CC(C)(C)CNc1c(C#N)cnc2c(C#N)cc(N[C@H](c3cn(C4(C(F)(F)F)CC4)nn3)c3cccc4[nH]ncc34)cc12 [Example 472] on TNFα; log10 of EC50 returned: 1.89

---

Give IC50 for every item shown.
Target: Human Cot (Homo sapiens (Human))
Experiment: High Throughput Cot Biochemical Assay
Conditions: IC50 HTRF, Cot HTRF (TR-FRET) biochemical assay
Dear colleague, please send the value followed by its unit.

Query `Cc1ccc([C@H](Nc2cc(Cl)c3ncc(C#N)c(Nc4ccc(F)c(Cl)c4)c3c2)c2c[nH]nn2)cn1` on Human Cot (Homo sapiens (Human)); IC50 returned: 9 nM

Query `Cn1cnc2cccc([C@H](Nc3cc(Cl)c4ncc(C#N)c(NCC(C)(C)C)c4c3)c3cn(C4(C(F)(F)F)CC4)nn3)c21` on Human Cot (Homo sapiens (Human)); IC50 returned: 7 nM

Query `CC(C)(C)CNc1c(C#N)cnc2c(Cl)cc(N[C@H](c3cn(C4(C(F)(F)F)CC4)nn3)c3cccn4nccc34)cc12` on Human Cot (Homo sapiens (Human)); IC50 returned: 11 nM

---

Target: UniProt P41279
Assay: High Throughput Cot Biochemical Assay
Details: IC50 HTRF, Cot HTRF (TR-FRET) biochemical assay
Quantity Name: IC50

Noted for `CC(C)(C)CNc1c(C#N)cnc2c(Cl)cc(N[C@H](c3cn(C4(CF)CC4)nn3)c3cccc4ccncc34)cc12` : its IC50 reads 2 nM

Noted for `Cn1cnc2c([C@H](Nc3cc(Cl)c4ncc(C#N)c(NCC(C)(C)C)c4c3)c3cn(C4(C(F)(F)F)CC4)nn3)cccc21` : its IC50 reads 123 nM

Noted for `Cn1cnc([C@H](Nc2cc(Cl)c3ncc(C#N)c(Nc4ccc(F)c(Cl)c4)c3c2)c2cn(C3CCN(C(C)(C)C)CC3)nn2)c1` : its IC50 reads 30 nM

Noted for `CC(C)(C)CNc1c(C#N)cnc2c(C#N)cc(N[C@H](c3cn(C4(C(N)=O)CCC4)nn3)c3cccc4ncccc34)cc12` : its IC50 reads 1 nM

Noted for `Cc1nc(F)ccc1[C@H](Nc1cc(Cl)c2ncc(C#N)c(NCC(C)(C)C)c2c1)c1cn([C@@H](C)CF)nn1` : its IC50 reads 2 nM

Noted for `C[C@@H](CF)n1cc([C@@H](Nc2cc(Cl)c3ncc(C#N)c(NCC(C)(C)C)c3c2)c2cccc3c(=O)n(C)ccc23)nn1` : its IC50 reads 4 nM

Noted for `COc1ccc([C@H](Nc2cc(Cl)c3ncc(C#N)c(NCC(C)(C)C)c3c2)c2cn(C3(C(F)F)CC3)nn2)c(C)n1` : its IC50 reads 5 nM

Noted for `CC(C)(C)CNc1c(C#N)cnc2c(Cl)cc(N[C@H](c3cn(C45CC(C4)C5)nn3)c3cccc4c(=O)[nH]ccc34)cc12` : its IC50 reads 2 nM

Noted for `Cn1cc2c([C@H](Nc3cc(Cl)c4ncc(C#N)c(NCC(C)(C)C)c4c3)c3cn(C4(C(F)F)CC4)nn3)cccc2n1` : its IC50 reads 6 nM

Noted for `N#Cc1cnc2c(Cl)cc(N[C@@H](c3cncc(Cl)c3)c3cn(C4CC4)nn3)cc2c1Nc1cnc(F)c(F)c1` : its IC50 reads 10 nM

---

Biological target: UniProt:P41279
Assay: High Throughput Cot Biochemical Assay
Conditions: IC50 HTRF, Cot HTRF (TR-FRET) biochemical assay
Give IC50 for every item shown.
Express the result in nM but write the number alone.

Query `CN1Cc2cccc([C@H](Nc3cc(C#N)c4ncc(C#N)c(NCC(C)(C)C)c4c3)c3cn(C4CC4)nn3)c2C1=O` on UniProt:P41279; IC50 returned: 3

Query `CC(C)(C)CNc1c(C#N)cnc2c(Cl)cc(N[C@H](c3cn(C4(C(N)=O)CCC4)nn3)c3cccc4cnccc34)cc12` on UniProt:P41279; IC50 returned: 2

Query Cn1cc(C(Nc2cc(Cl)c3ncc(C#N)c(Nc4ccc(F)c(Cl)c4)c3c2)c2cccnc2)nn1 (stereo not drawn) on UniProt:P41279; IC50 returned: 4

---

Give IC50 for every item shown.
Target: Human Cot (Homo sapiens (Human), UniProt P41279)
Sequence (P41279 30-397): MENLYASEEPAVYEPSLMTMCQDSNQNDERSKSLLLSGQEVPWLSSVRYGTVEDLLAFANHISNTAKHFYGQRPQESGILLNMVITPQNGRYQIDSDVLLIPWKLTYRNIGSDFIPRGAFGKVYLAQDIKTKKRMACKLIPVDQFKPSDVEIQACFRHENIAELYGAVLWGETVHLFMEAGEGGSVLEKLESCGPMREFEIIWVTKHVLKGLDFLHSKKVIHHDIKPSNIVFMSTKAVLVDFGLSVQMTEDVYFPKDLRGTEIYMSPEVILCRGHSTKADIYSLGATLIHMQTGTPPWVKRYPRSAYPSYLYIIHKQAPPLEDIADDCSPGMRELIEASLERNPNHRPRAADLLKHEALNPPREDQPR
Test: High Throughput Cot Biochemical Assay
Conditions: IC50 HTRF, Cot HTRF (TR-FRET) biochemical assay
Express the result in nM but write the number alone.

Noted for [2H][C@](Nc1cc(Cl)c2ncc(C#N)c(N[C@H](CC#N)c3ccccc3)c2c1)(c1ccc(F)nc1)c1cn(C2CC2)nn1 [Example 129] : its IC50 reads 2

Noted for Cc1nc(F)ccc1[C@H](Nc1cc(Cl)c2ncc(C#N)c(N[C@H]3CCOCC3(C)C)c2c1)c1cn(C2(C(F)F)CC2)nn1 [Example 540] : its IC50 reads 50

Noted for [2H]C(Nc1cc(Cl)c2ncc(C#N)c(NCC(C)(C)C)c2c1)(c1cn(C2CC2)nn1)c1scnc1C (stereo not shown) [Example 102] : its IC50 reads 3

Noted for CC(C)(C)N1CCC(n2cc([C@@H](Nc3cc(Cl)c4ncc(C#N)c(Nc5ccc(Cl)c(Cl)c5F)c4c3)c3cccnc3)nn2)CC1 [Example 260] : its IC50 reads 6

---

System: TNFα
Experiment: Cot Monocyte TNFα Cell Based Assay
Conditions: Homo sapiens, Monocyte, read-out: EC50 TNF, LPS-stimulated human monocytes, TNFα
Quantity Name: pEC50
Reminder that pEC50 means the negative base-10 logarithm of the concentration expressed in mol/L.

Noted for CCc1nc(F)ccc1[C@H](Nc1cc(C#N)c2ncc(C#N)c(NCC(C)(C)C)c2c1)c1cn(C2(C(F)F)CC2)nn1 [Example 597] : its pEC50 reads 6.82

Noted for COc1ncccc1[C@H](Nc1cc(Cl)c2ncc(C#N)c(NCC(C)(C)C)c2c1)c1cn(C2(C(F)(F)F)CC2)nn1 [Example 782] : its pEC50 reads 6.75

Noted for Cc1nc(F)ccc1[C@H](Nc1cc(C#N)c2ncc(C#N)c(NCC(C)(C)C)c2c1)c1cn(C2CC2)nn1 [Example 454] : its pEC50 reads 7.49

Noted for CC(C)n1cc([C@@H](Nc2cc(Cl)c3ncc(C#N)c(Nc4ccc(F)c(Cl)c4)c3c2)c2cncs2)nn1 [Example 303] : its pEC50 reads 6.06

Noted for CN1Cc2cccc([C@H](Nc3cc(C#N)c4ncc(C#N)c(NCC(C)(C)C)c4c3)c3cn(C4CC4)nn3)c2C1=O [Example 77] : its pEC50 reads 6.81

Noted for Cc1nc(F)ccc1[C@H](Nc1cc(C#N)c2ncc(C#N)c(NCC(C)(C)C)c2c1)c1cn(C2(C(N)=O)CC2)nn1 [Example 490] : its pEC50 reads 6.00
